Method Notes: biodistribution study in the rat, time course (cerebellum, striatum, frontal cortex)
Format: in vivo, rat (male Wistar)
Setup Conditions: rat, frontal cortex, iv, 8e-06 mg/kg; 4 h post-injection; read-out: Frontal cortex (% injected dose/g tissue)
Description: For this purpose 3 batches of male Wistar rats are used using 6 rats per batch. […] 2 hours later, the animals are sacrificed and the doses of radioactivity in the cerebellum, striatum and frontal cortex tissues are determined. The results obtained are given in FIG. 2 and are expressed as a % of the dose injected per gram of tissue. […]
Readout Type: tissue uptake at 4 h (%ID/g)
Numbers only, in %ID/g.

// COC(=O)[C@H]1[C@@H](c2ccc(C)cc2)C[C@@H]2CC[C@H]1N2C/C=C/[125I] [Example 1] : tissue uptake at 4 h value = 0.018

----------
Method Notes: biodistribution study in the rat, time course (cerebellum, striatum, frontal cortex)
Format: in vivo, rat (male Wistar)
Setup Conditions: rat, striatum, iv, 8e-06 mg/kg; 4 h post-injection; read-out: Striatum (% injected dose/g tissue)
Readout Type: tissue uptake at 4 h (%ID/g)
Answers are plain numbers, in %ID/g.

// COC(=O)[C@H]1[C@@H](c2ccc(C)cc2)C[C@@H]2CC[C@H]1N2C/C=C/[125I] : tissue uptake at 4 h value = 0.074

----------
Method Notes: biodistribution study in the rat, time course (cerebellum, striatum, frontal cortex)
Format: in vivo, rat (male Wistar)
Setup Conditions: rat, cerebellum, iv, 8e-06 mg/kg; 1 h post-injection; read-out: Cerebellum
Readout Type: tissue uptake at 1 h (%ID/g)
Numbers only, in %ID/g.

// COC(=O)[C@H]1[C@@H](c2ccc(C)cc2)C[C@@H]2CC[C@H]1N2C/C=C/[125I] [Example 1] : tissue uptake at 1 h value = 0.055

----------
Method Notes: biodistribution study in the rat, time course (cerebellum, striatum, frontal cortex)
Type: in vivo, rat (male Wistar)
Setup Conditions: rat, frontal cortex, iv, 8e-06 mg/kg; 1 h post-injection; read-out: Frontal cortex (% injected dose/g tissue)
Readout Type: tissue uptake at 1 h (%ID/g)
Answers are plain numbers, in %ID/g.

// COC(=O)[C@H]1[C@@H](c2ccc(C)cc2)C[C@@H]2CC[C@H]1N2C/C=C/[125I] [Example 1] : tissue uptake at 1 h value = 0.07

----------
Let's go through some recorded pKi values for UniProt P31652 together.
Sequence (P31652 whole entry): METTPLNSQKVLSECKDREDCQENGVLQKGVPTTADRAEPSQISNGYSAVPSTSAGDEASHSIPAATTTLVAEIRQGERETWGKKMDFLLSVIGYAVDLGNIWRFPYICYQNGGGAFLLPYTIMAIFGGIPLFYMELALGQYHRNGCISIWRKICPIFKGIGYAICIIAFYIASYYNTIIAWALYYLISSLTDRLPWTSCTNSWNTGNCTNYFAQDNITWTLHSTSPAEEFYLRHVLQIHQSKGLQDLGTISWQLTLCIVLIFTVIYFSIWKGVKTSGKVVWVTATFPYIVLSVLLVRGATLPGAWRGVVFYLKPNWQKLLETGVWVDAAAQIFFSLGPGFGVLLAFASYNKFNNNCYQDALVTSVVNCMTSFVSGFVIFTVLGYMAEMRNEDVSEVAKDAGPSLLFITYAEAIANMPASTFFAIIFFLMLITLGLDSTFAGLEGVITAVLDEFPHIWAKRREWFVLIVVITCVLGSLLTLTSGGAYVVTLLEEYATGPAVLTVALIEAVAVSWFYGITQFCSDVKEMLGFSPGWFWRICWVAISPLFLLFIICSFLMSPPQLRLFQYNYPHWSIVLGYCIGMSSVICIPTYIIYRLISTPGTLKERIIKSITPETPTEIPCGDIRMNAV
One number for each entry, as −log10 of the molar value.

>>> quantitative_result("COC(=O)[C@H]1[C@@H](c2ccc(C)cc2)C[C@@H]2CC[C@H]1N2C/C=C/[125I]")
6.30

Now, please, on to the next molecule.
// COC(=O)[C@H]1[C@@H](c2ccc(I)cc2)C[C@@H]2CC[C@H]1N2C [β-CIT, reference compound] : pKi value = 7.52

----------
Method Notes: biodistribution study in the rat, time course (cerebellum, striatum, frontal cortex)
Assay type: in vivo, rat (male Wistar)
Setup Conditions: rat, cerebellum, iv, 8e-06 mg/kg; 2 h post-injection; read-out: Cerebellum
Description: For this purpose 3 batches of male Wistar rats are used using 6 rats per batch. […] 2 hours later, the animals are sacrificed and the doses of radioactivity in the cerebellum, striatum and frontal cortex tissues are determined. The results obtained are given in FIG. 2 and are expressed as a % of the dose injected per gram of tissue. […]
Readout Type: tissue uptake at 2 h (%ID/g)
One number for each entry, in %ID/g.

// COC(=O)[C@H]1[C@@H](c2ccc(C)cc2)C[C@@H]2CC[C@H]1N2C/C=C/[125I] : tissue uptake at 2 h value = 0.038

----------
Method Notes: biodistribution study in the rat, time course (cerebellum, striatum, frontal cortex)
Type: in vivo, rat (male Wistar)
Setup Conditions: rat, cerebellum, iv, 8e-06 mg/kg; 0.5 h post-injection; read-out: Cerebellum
Readout Type: tissue uptake at 0.5 h (%ID/g)
Give bare numbers, in %ID/g.

// COC(=O)[C@H]1[C@@H](c2ccc(C)cc2)C[C@@H]2CC[C@H]1N2C/C=C/[125I] : tissue uptake at 0.5 h value = 0.1

----------
Target System: noradrenaline transporter (Rattus norvegicus)
Construct: in vitro studies are conducted on brain membrane preparations; from tissue; host or cells: brain membrane preparations
Method Notes: in vitro competition with [^3 H]-nisoxetine on brain membrane preparations
Format: binding
Setup Conditions: [^3 H]nisoxetine; read-out: Affinity: Ki (nM) Nor-adrenaline
Readout Type: Ki

// COC(=O)[C@H]1[C@@H](c2ccc(C)cc2)C[C@@H]2CC[C@H]1N2C/C=C/[125I] : Ki value = > 100 nM

----------
Method Notes: biodistribution study in the rat, time course (cerebellum, striatum, frontal cortex)
Assay type: in vivo, rat (male Wistar)
Setup Conditions: rat, striatum, iv, 8e-06 mg/kg; 1 h post-injection; read-out: Striatum (% injected dose/g tissue)
Readout Type: tissue uptake at 1 h (%ID/g)
One number for each entry, in %ID/g.

// COC(=O)[C@H]1[C@@H](c2ccc(C)cc2)C[C@@H]2CC[C@H]1N2C/C=C/[125I] [Example 1] : tissue uptake at 1 h value = 0.537

----------
Method Notes: biodistribution study in the rat, time course (cerebellum, striatum, frontal cortex)
Assay type: in vivo, rat (male Wistar)
Setup Conditions: rat, frontal cortex, iv, 8e-06 mg/kg; 2 h post-injection; read-out: Frontal cortex (% injected dose/g tissue)
Readout Type: tissue uptake at 2 h (%ID/g)
One number for each entry, in %ID/g.

// COC(=O)[C@H]1[C@@H](c2ccc(C)cc2)C[C@@H]2CC[C@H]1N2C/C=C/[125I] : tissue uptake at 2 h value = 0.039

----------
Method Notes: biodistribution study in the rat, time course (cerebellum, striatum, frontal cortex)
Type: in vivo, rat (male Wistar)
Setup Conditions: rat, striatum, iv, 8e-06 mg/kg; 2 h post-injection; read-out: Striatum (% injected dose/g tissue)
Readout Type: tissue uptake at 2 h (%ID/g)
Answers are plain numbers, in %ID/g.

// COC(=O)[C@H]1[C@@H](c2ccc(C)cc2)C[C@@H]2CC[C@H]1N2C/C=C/[125I] [Example 1] : tissue uptake at 2 h value = 0.272

----------
Target System: dopamine transporter
Method Notes: in vitro competition with [^3 H]-GBR 12935 on brain membrane preparations
Type: binding
Setup Conditions: [^3 H]GBR; read-out: Affinity: Ki (nM) Dopamine (DA)
Readout Type: Ki

>>> result("COC(=O)[C@H]1[C@@H](c2ccc(I)cc2)C[C@@H]2CC[C@H]1N2C [β-CIT, reference compound]")
"27 nM"

Now, please, on to the next compound.
// COC(=O)[C@H]1[C@@H](c2ccc(C)cc2)C[C@@H]2CC[C@H]1N2C/C=C/[125I] [Example 1] : Ki value = 17 nM

----------
Target System: noradrenaline transporter (Rattus norvegicus, UniProt Q63380)
Construct: in vitro studies are conducted on brain membrane preparations; from tissue; host or cells: brain membrane preparations
Sequence (Q63380 1-617): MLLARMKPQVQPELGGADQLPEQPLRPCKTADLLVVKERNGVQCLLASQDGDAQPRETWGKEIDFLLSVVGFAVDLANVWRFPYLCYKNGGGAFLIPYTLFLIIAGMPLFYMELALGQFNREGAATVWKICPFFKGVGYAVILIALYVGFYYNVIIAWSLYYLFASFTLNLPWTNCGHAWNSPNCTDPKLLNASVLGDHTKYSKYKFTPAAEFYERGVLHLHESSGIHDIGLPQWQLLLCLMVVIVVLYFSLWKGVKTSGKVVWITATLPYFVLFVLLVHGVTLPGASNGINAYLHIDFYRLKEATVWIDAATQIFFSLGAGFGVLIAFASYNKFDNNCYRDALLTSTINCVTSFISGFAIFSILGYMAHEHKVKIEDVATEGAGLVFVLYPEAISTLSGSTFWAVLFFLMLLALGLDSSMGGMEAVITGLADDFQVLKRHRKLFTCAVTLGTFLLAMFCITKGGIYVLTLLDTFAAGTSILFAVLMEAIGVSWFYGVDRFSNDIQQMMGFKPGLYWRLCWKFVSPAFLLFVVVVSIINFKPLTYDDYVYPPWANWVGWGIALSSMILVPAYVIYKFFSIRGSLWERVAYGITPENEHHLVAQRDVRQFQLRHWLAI
Method Notes: in vitro competition with [^3 H]-nisoxetine on brain membrane preparations
Type: binding
Readout Type: Ki (nM)
Answers are plain numbers, in nM.

// COC(=O)[C@H]1[C@@H](c2ccc(I)cc2)C[C@@H]2CC[C@H]1N2C [β-CIT, reference compound] : Ki value = 80

----------
Target System: dopamine transporters (Rattus norvegicus)
Sequence (P23977 whole entry): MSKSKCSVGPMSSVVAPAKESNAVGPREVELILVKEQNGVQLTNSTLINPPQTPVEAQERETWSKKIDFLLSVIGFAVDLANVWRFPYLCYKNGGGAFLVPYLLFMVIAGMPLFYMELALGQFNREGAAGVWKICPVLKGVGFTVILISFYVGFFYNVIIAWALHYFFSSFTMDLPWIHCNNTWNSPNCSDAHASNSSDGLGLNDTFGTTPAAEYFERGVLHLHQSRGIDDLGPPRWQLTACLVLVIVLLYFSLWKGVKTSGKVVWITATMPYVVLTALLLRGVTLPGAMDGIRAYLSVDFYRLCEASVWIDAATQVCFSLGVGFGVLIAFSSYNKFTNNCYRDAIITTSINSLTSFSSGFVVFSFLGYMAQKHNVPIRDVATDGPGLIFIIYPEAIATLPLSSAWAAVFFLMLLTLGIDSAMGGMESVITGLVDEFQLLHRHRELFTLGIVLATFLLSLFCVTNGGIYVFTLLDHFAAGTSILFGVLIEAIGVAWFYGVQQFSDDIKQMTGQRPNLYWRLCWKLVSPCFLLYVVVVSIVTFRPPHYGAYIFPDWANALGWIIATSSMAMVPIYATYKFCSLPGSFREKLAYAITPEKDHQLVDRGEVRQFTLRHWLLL
Method Notes: in vitro affinity of [^125 I]PE21 for dopamine transporters
Format: binding
Setup Conditions: [^125 I]PE21
Readout Type: pKd
One number for each entry, as −log10 of the molar value.

// COC(=O)[C@H]1[C@@H](c2ccc(C)cc2)C[C@@H]2CC[C@H]1N2C/C=C/[125I] [Example 1] : pKd value = 10.05

Origin of measurements: patent US6180083A
